# credit: patent US9504729B2

- Test system: angiogenesis genes in dermal microvascular endothelial cells
- experiment_description: Real time RT-PCR of angiogenesis gene expression during endothelial tube formation
- Assay type: cell-based
- assay_setup: 1 μM SM, 24 hours
- Procedure: For gene expression studies, three independent experiments were run for each SM tested. […] Fluorescence was measured in every cycle and a melting curve was run after the PCR by increasing temperature from 50 to 96° C. […] The genes that were monitored were selected based on their relevance to the angiogenesis process. […]
Here the recorded Log2 fold-change of gene expression: TGFA is given for each entry.
When you answer, write just the number.

molecule="COc1ccc(CC2C(=O)NC(C)C(=O)N(C)C3Cc4ccc(cc4)Oc4cc(ccc4O)CC(C(=O)NC(C)C(=O)NC(C)C(=O)N2C)N(C)C3=O)cc1 (stereo not drawn)" result=8.7
molecule=CCC(=O)OCN1C(=O)C=CC1=O result=1.1
molecule=CC1CCN(CC[S-])CC1.O.O.[Cl][Pt+] result=8.9
molecule="COC(=O)C1CC(=O)C(C(=O)OC)CC1=O (stereo not drawn)" result=2.0
molecule="O=C1C(=Cc2ccccc2)C(NC2CCCCC2)c2ccccc21 (stereo not drawn)" result=5.3

Please look at the following molecule next.
Complete the entry with Log2 fold-change of gene expression: TGFA for COc1cc2cc(c1Cl)N(C)C(=O)CC(OC(=O)C(C)C)C1(C)OC1C(C)C1CC(O)(NC(=O)O1)C(OC)/C=C/C=C(\C)C2 (stereo not drawn) −3.4

----------
- Test system: angiogenesis genes in dermal microvascular endothelial cells
- experiment_description: Real time RT-PCR of angiogenesis gene expression during endothelial tube formation
- Type: cell-based
- assay_setup: 1 μM SM, 24 hours
endpoint_name: Log2 fold-change of gene expression: Icam2
When you answer, write just the number.

As a guide, the following entries are already answered.
compound=CC1CCN(CC[S-])CC1.O.O.[Cl][Pt+] result=−0.4
compound="COc1ccc(CC2C(=O)NC(C)C(=O)N(C)C3Cc4ccc(cc4)Oc4cc(ccc4O)CC(C(=O)NC(C)C(=O)NC(C)C(=O)N2C)N(C)C3=O)cc1 (stereo not drawn)" result=7.5
compound="COC(=O)C1CC(=O)C(C(=O)OC)CC1=O (stereo not drawn)" result=0.1
compound=CCC(=O)OCN1C(=O)C=CC1=O result=0.4
compound="COc1cc2cc(c1Cl)N(C)C(=O)CC(OC(=O)C(C)C)C1(C)OC1C(C)C1CC(O)(NC(=O)O1)C(OC)/C=C/C=C(\\C)C2 (stereo not drawn)" result=0.1

Please look at the following compound next.
Complete the entry with Log2 fold-change of gene expression: Icam2 for O=C1C(=Cc2ccccc2)C(NC2CCCCC2)c2ccccc21 (stereo not drawn) 0.0

----------
- Test system: angiogenesis genes in dermal microvascular endothelial cells
- experiment_description: Real time RT-PCR of angiogenesis gene expression during endothelial tube formation
- Assay type: cell-based
- assay_setup: 1 μM SM, 24 hours
- Method: For gene expression studies, three independent experiments were run for each SM tested. […] Fluorescence was measured in every cycle and a melting curve was run after the PCR by increasing temperature from 50 to 96° C. […] The genes that were monitored were selected based on their relevance to the angiogenesis process. […]
Here the recorded Log2 fold-change of gene expression: 90780 is given for each entry.

As a guide, the following entries are already answered.
compound="O=C1C(=Cc2ccccc2)C(NC2CCCCC2)c2ccccc21 (stereo not drawn) [compound 150117]" result=−1.4
compound="CCC(=O)OCN1C(=O)C=CC1=O [compound 19630]" result=−1.2
compound="COC(=O)C1CC(=O)C(C(=O)OC)CC1=O (stereo not drawn) [Compound 122567]" result=−1.9
compound="COc1cc2cc(c1Cl)N(C)C(=O)CC(OC(=O)C(C)C)C1(C)OC1C(C)C1CC(O)(NC(=O)O1)C(OC)/C=C/C=C(\\C)C2 (stereo not drawn) [compound 292222]" result=0.1
compound="CC1CCN(CC[S-])CC1.O.O.[Cl][Pt+] [compound 292596]" result=−0.8

Please look at the following compound next.
Complete the entry with Log2 fold-change of gene expression: 90780 for COc1ccc(CC2C(=O)NC(C)C(=O)N(C)C3Cc4ccc(cc4)Oc4cc(ccc4O)CC(C(=O)NC(C)C(=O)NC(C)C(=O)N2C)N(C)C3=O)cc1 (stereo not drawn) [compound 259969] −2.4
